IC50 values by entry
# TARGET UNDER TEST: Mushroom tyrosinase (Agaricus bisporus, UniProt O42713+Q00024+C7FF04+C7FF05)
# EXPERIMENTAL PROTOCOL: Inhibition of mushroom tyrosinase using L-DOPA as substrate by spectrophotometric analysis
# Assay type: protein assay
MEASURE NAME: IC50 (µM)

[[record]]
compound = "CC(C)C(=O)Nc1nc(-c2ccc(O)cc2O)cs1"
target_under_test = "Mushroom tyrosinase (Agaricus bisporus, UniProt O42713+Q00024+C7FF04+C7FF05)"
measure_name = "IC50"
numeric_value = 0.13

[[record]]
compound = "O=c1oc2ccccc2cc1O [3-HYDROXYCOUMARIN]"
target_under_test = "Mushroom tyrosinase (Agaricus bisporus, UniProt O42713+Q00024+C7FF04+C7FF05)"
measure_name = "IC50"
numeric_value = 2.49

[[record]]
compound = "O=c1[nH]c2ccc(F)cc2cc1O"
target_under_test = "Mushroom tyrosinase (Agaricus bisporus, UniProt O42713+Q00024+C7FF04+C7FF05)"
measure_name = "IC50"
numeric_value = 3.57

[[record]]
compound = "Cc1ccc2[nH]c(=O)c(O)cc2c1"
target_under_test = "Mushroom tyrosinase (Agaricus bisporus, UniProt O42713+Q00024+C7FF04+C7FF05)"
measure_name = "IC50"
numeric_value = 6.11

[[record]]
compound = "O=c1[nH]c2ccccc2cc1O"
target_under_test = "Mushroom tyrosinase (Agaricus bisporus, UniProt O42713+Q00024+C7FF04+C7FF05)"
measure_name = "IC50"
numeric_value = 2.74

[[record]]
compound = "Cc1cc(C)c2cc(O)c(=O)[nH]c2c1"
target_under_test = "Mushroom tyrosinase (Agaricus bisporus, UniProt O42713+Q00024+C7FF04+C7FF05)"
measure_name = "IC50"
numeric_value = 926

[[record]]
compound = "O=c1[nH]c2cccc(Cl)c2cc1O"
target_under_test = "Mushroom tyrosinase (Agaricus bisporus, UniProt O42713+Q00024+C7FF04+C7FF05)"
measure_name = "IC50"
numeric_value = 92.7

[[record]]
compound = "O=c1[nH]c2ccc(Br)cc2cc1O"
target_under_test = "Mushroom tyrosinase (Agaricus bisporus, UniProt O42713+Q00024+C7FF04+C7FF05)"
measure_name = "IC50"
numeric_value = 2.52

[[record]]
compound = "Cc1cc2cc(O)c(=O)[nH]c2cc1C"
target_under_test = "Mushroom tyrosinase (Agaricus bisporus, UniProt O42713+Q00024+C7FF04+C7FF05)"
measure_name = "IC50"
numeric_value = 43.5

[[record]]
compound = "Cc1ccc2cc(O)c(=O)[nH]c2c1"
target_under_test = "Mushroom tyrosinase (Agaricus bisporus, UniProt O42713+Q00024+C7FF04+C7FF05)"
measure_name = "IC50"
numeric_value = 173

